Please respond with reported post-emergence herbicidal activity index for every item in the list.
- Tested on: Barnyardgrass
- ASSAY_TEXT: post-emergence herbicidal activity, greenhouse
- Type: in vivo
- CONDITION_SUMMARY: Table II, 4 WAT, 5.6 kg/h

Incoming: Which post-emergence herbicidal activity index is reported with Barnyardgrass for this entry: CC(C)SSN(CC#N)CP(=O)(Oc1ccccc1)Oc1ccccc1 [VI] ?
Outgoing: 3 (75-99% control)

Incoming: Missing value: post-emergence herbicidal activity index, Barnyardgrass, entry N#CCN(CP(=O)(Oc1ccccc1)Oc1ccccc1)SSCCc1ccccc1 [XII] . Fill in?
Outgoing: 2 (50-74% control)

Incoming: // fetch Barnyardgrass post-emergence herbicidal activity index for N#CCN(CP(=O)(Oc1ccccc1)Oc1ccccc1)SSc1cccc(C(F)(F)F)c1 [IV]
Outgoing: 3 (75-99% control)

Incoming: Form: Entry = CC(C)CCSSN(CC#N)CP(=O)(Oc1ccccc1)Oc1ccccc1 [V] | System = Barnyardgrass | post-emergence herbicidal activity index = ____
Outgoing: 3 (75-99% control)

Incoming: Recall the recorded post-emergence herbicidal activity index for CSSN(CC#N)CP(=O)(Oc1ccccc1)Oc1ccccc1 [VII] with Barnyardgrass and state it.
Outgoing: 3 (75-99% control)

Incoming: Please state recorded post-emergence herbicidal activity index (tested on Barnyardgrass) of N#CCN(CP(=O)(Oc1ccccc1)Oc1ccccc1)SCl [I]
Outgoing: 2 (50-74% control)

====

- Tested on: Sorghum
- ASSAY_TEXT: post-emergence herbicidal activity, greenhouse
- Type: in vivo
- CONDITION_SUMMARY: Table II, 4 WAT, 1.12 kg/h
PARAMETER_MEASURED: post-emergence herbicidal activity index

Incoming: Name the reported post-emergence herbicidal activity index value associated with the compound N#CCN(CP(=O)(Oc1ccccc1)Oc1ccccc1)SCl
Outgoing: 2 (50-74% control)

Incoming: post-emergence herbicidal activity index lookup needed for CC(C)SSN(CC#N)CP(=O)(Oc1ccccc1)Oc1ccccc1 , thanks.
Outgoing: 1 (25-49% control)

Incoming: Which post-emergence herbicidal activity index value is on record for N#CCN(CP(=O)(Oc1ccccc1)Oc1ccccc1)SSCCc1ccccc1 ?
Outgoing: 1 (25-49% control)

Incoming: Quick one: post-emergence herbicidal activity index for CC(C)CCSSN(CC#N)CP(=O)(Oc1ccccc1)Oc1ccccc1 ?
Outgoing: 2 (50-74% control)

Incoming: Quick one: post-emergence herbicidal activity index of CSSN(CC#N)CP(=O)(Oc1ccccc1)Oc1ccccc1 ?
Outgoing: 2 (50-74% control)

Incoming: Bench note: what post-emergence herbicidal activity index did N#CCN(CP(=O)(Oc1ccccc1)Oc1ccccc1)SSc1cccc(C(F)(F)F)c1 show?
Outgoing: 2 (50-74% control)

====

Task for the reader: assign each of the following molecules its reported post-emergence herbicidal activity index.
- Tested on: Soybean
- ASSAY_TEXT: post-emergence herbicidal activity, greenhouse
- Format: in vivo
- CONDITION_SUMMARY: Table II, 4 WAT, 5.6 kg/h

Incoming: Would you mind telling me what post-emergence herbicidal activity index value was observed for N#CCN(CP(=O)(Oc1ccccc1)Oc1ccccc1)SCl ?
Outgoing: 2 (50-74% control)

Incoming: Reported post-emergence herbicidal activity index, molecule CC(C)SSN(CC#N)CP(=O)(Oc1ccccc1)Oc1ccccc1 : ____
Outgoing: 1 (25-49% control)

Incoming: Bench note: what post-emergence herbicidal activity index did N#CCN(CP(=O)(Oc1ccccc1)Oc1ccccc1)SSCCc1ccccc1 show?
Outgoing: 1 (25-49% control)

Incoming: Dear colleague, I am looking for the recorded post-emergence herbicidal activity index of the following molecule: CSSN(CC#N)CP(=O)(Oc1ccccc1)Oc1ccccc1
Outgoing: 2 (50-74% control)

Incoming: Record request: post-emergence herbicidal activity index value, item CC(C)CCSSN(CC#N)CP(=O)(Oc1ccccc1)Oc1ccccc1
Outgoing: 2 (50-74% control)

Incoming: I'd like to know its post-emergence herbicidal activity index. The molecule in question is N#CCN(CP(=O)(Oc1ccccc1)Oc1ccccc1)SSc1cccc(C(F)(F)F)c1
Outgoing: 1 (25-49% control)
